The values you see were collected from PubChem BioAssay AID1159580.

# normalized growth per record follows
# procedure summary: chemical genetic growth profiling, strain panel (AID 1159580);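 note: tested at 20 µM; growth read once vehicle control cultures reached saturation at 30 °C; 1 = growth at the plate median or of vehicle wells; lower values mean less growth of the strain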
# condition details: S. cerevisiae deletion strains, growth OD, locus YDL074C, strain BRE1, active compounds read low
The whole screen tested about 5,500 compounds, of which about 2,000 (36%) were called active. About 18% were inconclusive and are not listed. The list shows a part of the results. Where a SMILES comes first, the peptide text is derived from it. [ ]: non-standard residue; d: D form. Orn = NCCC[CH](N)C(=O)O
measure name: normalized growth

[[record]]
compound = "COc1cc(O)cc(OC)c1OC"
result = 1.04

[[record]]
compound = "CCOc1cccc(C(=O)c2ccc(O)c(O)c2O)c1"
result = 0.67

[[record]]
compound = "C=C(C)[C@@H]1CC[C@]2(CO)CC[C@]3(C)[C@H](CCC4[C@@]5(C)CC[C@H](O)C(C)(C)C5CC[C@]43C)C12 (stereo not given in full)"
result = 1.01

[[record]]
compound = "C=C(C)[C@H]1Cc2c(ccc3c2O[C@@H]2COc4cc(OC)c(OC)cc4[C@@H]2C3=O)O1"
result = 0.926

[[record]]
compound = "COc1c2ccoc2cc2oc(C)cc(=O)c12"
result = 0.981

[[record]]
compound = "NC(N)=NC(N)=Nc1ccccc1"
result = 1.02

[[record]]
compound = "C1CCC(C(CC2CCCCN2)C2CCCCC2)CC1 (stereo not given)"
result = 0.585

[[record]]
compound = "COc1cc2c(cc1OC)[C@@H]1C(=O)c3ccc4c(c3O[C@@H]1CO2)CC(C(C)C)O4 (stereo not given in full)"
result = 0.952

[[record]]
compound = "CC(C)CC1NC(=O)C(CCCN)NC(=O)C(C(C)C)NC(=O)C2CCCN2C(=O)C(Cc2ccccc2)NC(=O)C(CC(C)C)NC(=O)C(CCCN)NC(=O)C(C(C)C)NC(=O)C2CCCN2C(=O)C(Cc2ccccc2)NC1=O (stereo not given) (cyclo(FPV[Orn]LFPV[Orn]L); configuration not given here)"
result = 0.964

[[record]]
compound = "CC[C@H]1OC(=O)[C@H](C)[C@@H](O[C@H]2C[C@@](C)(OC)[C@@H](O)[C@H](C)O2)[C@H](C)[C@@H](O[C@@H]2O[C@H](C)C[C@H](N(C)C)[C@H]2O)[C@](C)(O)C[C@@H](C)[C@@H]2N[C@@H](COCCOC)O[C@H]([C@H]2C)[C@]1(C)O"
result = 1.01


###

# normalized growth per record follows
# procedure summary: chemical genetic growth profiling, strain panel (AID 1159580);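 note: tested at 20 µM; growth read once vehicle control cultures reached saturation at 30 °C; 1 = growth at the plate median or of vehicle wells; lower values mean less growth of the strain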
# condition details: S. cerevisiae deletion strains, growth OD, locus YDR195W, strain ref2
Among all 5,500 compounds or so, about 2,000 (36%) were called active. Not shown: some 18% with an inconclusive outcome. This is one part of the list.
measure name: normalized growth

[[record]]
compound = "CC(=O)O[C@H]1CC[C@]2(C)C3CC(=O)[C@]4(C)C(C(C)=O)=CCC4C3CC[C@H]2C1 (stereo partly specified)"
result = 1

[[record]]
compound = "O=C(NC1CCCCC1)NC1CCCCC1"
result = 0.958

[[record]]
compound = "c1ccc([C@H]2CN3CCSC3=N2)cc1"
result = 1

[[record]]
compound = "C[C@]12CCC3C(CC[C@H]4C[C@H](OS(=O)(=O)O)CC[C@]34C)C1CCC2=O (stereo partly specified)"
result = 1.06

[[record]]
compound = "C[C@]12CCC(=O)C=C1CCC1C2[C@@H](O)C[C@@]2(C)C1CC[C@]2(O)C(=O)COC(=O)CCC(=O)O (stereo partly specified)"
result = 0.997

[[record]]
compound = "C#C[C@]1(O)CCC2C3CCC4=Cc5oncc5C[C@]4(C)C3CC[C@@]21C (stereo partly specified)"
result = 0.978

[[record]]
compound = "CCOc1cccc(C(=O)c2ccc(O)c(O)c2O)c1"
result = 0.99

[[record]]
compound = "C[C@]12CCC(=O)C=C1CCC1C2C(=O)C[C@@]2(C)C1CC[C@]2(O)C(=O)CO (stereo partly specified)"
result = 0.973

[[record]]
compound = "O=C(O)c1cc(=O)c2c(Cl)cc(Cl)cc2[nH]1"
result = 1.02

[[record]]
compound = "CC(=O)CC1CCCCN1 (stereo unspecified)"
result = 0.982

[[record]]
compound = "NCCc1cc(O)c(O)cc1O"
result = 0.97

